target: T1, human MSLN-R3-his protein (human, UniProt Q13421 487-598); assay: ELISA, coated antigen; antibody 1 nM
T1 construct: also called human MSLN-R3 protein; hMSLN-R3-his; not shown: His tag
T1 sequence (Q13421 495-606): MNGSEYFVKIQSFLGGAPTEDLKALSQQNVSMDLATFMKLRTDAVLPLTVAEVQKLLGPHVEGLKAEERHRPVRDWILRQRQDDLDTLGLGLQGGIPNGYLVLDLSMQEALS
Known OD450 of a selection of binders

Would you please look over these solved cases?
[
  {
    "binder": "S009-F3.16.1 (antibody, human IgG1, kappa, V domains shown, Human-murine chimeric antibody, human IgG1/kappa constant regions) VH: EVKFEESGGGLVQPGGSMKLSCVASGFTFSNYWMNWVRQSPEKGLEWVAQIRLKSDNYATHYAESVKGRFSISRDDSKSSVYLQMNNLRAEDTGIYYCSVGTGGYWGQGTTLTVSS VL: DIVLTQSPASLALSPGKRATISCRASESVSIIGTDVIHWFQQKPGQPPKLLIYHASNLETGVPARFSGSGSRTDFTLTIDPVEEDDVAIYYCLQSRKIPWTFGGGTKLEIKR",
    "OD450": "1.8 OD450"
  },
  {
    "binder": "S009-F3.45.21 (antibody, human IgG1, kappa, V domains shown, Human-murine chimeric antibody, human IgG1/kappa constant regions) VH: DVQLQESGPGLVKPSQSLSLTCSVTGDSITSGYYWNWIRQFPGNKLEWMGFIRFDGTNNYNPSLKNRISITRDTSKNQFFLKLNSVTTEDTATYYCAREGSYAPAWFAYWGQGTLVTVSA VL: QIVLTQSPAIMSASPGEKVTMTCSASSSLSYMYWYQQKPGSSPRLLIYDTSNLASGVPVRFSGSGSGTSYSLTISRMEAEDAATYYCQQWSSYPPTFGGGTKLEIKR",
    "OD450": "0.05 OD450"
  }
]

Consider now this further binder.
Param item = S009-F3.74.20 (antibody, human IgG1, kappa, V domains shown, Human-murine chimeric antibody, human IgG1/kappa constant regions) VH: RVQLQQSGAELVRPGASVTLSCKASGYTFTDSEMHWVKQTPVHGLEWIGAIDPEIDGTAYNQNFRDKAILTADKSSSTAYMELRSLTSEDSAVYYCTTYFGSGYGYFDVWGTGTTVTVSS VL: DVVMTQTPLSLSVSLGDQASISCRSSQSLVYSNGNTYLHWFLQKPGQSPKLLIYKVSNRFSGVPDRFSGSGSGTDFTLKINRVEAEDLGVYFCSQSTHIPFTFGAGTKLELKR ; retrieve measured OD450.
1.88 OD450

Origin of measurements: patent US20250250357A1
